Target: Histone deacetylase 2 (Homo sapiens, UniProt Q92769)
Sequence (Q92769 whole entry): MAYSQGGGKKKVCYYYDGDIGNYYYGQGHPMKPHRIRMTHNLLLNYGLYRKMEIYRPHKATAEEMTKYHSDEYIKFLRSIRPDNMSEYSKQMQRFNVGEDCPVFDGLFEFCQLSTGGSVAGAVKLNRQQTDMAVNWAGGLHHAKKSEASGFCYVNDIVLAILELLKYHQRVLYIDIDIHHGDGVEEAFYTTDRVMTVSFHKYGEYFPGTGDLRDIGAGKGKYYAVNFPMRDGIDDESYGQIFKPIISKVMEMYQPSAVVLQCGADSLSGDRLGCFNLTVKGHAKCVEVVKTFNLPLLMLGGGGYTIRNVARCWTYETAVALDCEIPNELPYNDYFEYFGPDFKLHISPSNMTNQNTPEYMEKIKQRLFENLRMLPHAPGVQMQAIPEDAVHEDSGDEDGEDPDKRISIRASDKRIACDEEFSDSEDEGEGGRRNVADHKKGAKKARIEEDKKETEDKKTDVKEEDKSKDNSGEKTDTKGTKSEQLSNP
Parameter measured: IC50 (µM)
Answer in µM, number only, no unit symbol.

Recorded IC50, per entry:
>  <Compound>
Cc1ccc(NC(=O)[C@H](CCCCCC(=O)NO)NC(=O)[C@H]2CCC(=O)N2)cc1

>  <IC50 [µM]>
0.093

$$$$
>  <Compound>
O=C(CCCCC[C@H](NC(=O)[C@@H]1CCC(=O)N1)C(=O)Nc1ccccc1)NO

>  <IC50 [µM]>
0.143

$$$$
>  <Compound>
O=C(CCCCC[C@H](NC(=O)[C@@H]1CCCC(=O)N1)C(=O)Nc1ccccc1)NO

>  <IC50 [µM]>
0.089

$$$$
>  <Compound>
O=C(CCCCC[C@H](NC(=O)C1C(=O)NCC1c1ccccc1)C(=O)Nc1ccccc1)NO (stereo partly specified)

>  <IC50 [µM]>
0.11

$$$$

State the measured IC50 (Histone deacetylase 2 (Homo sapiens, UniProt Q92769)) of O=C(CCCCC[C@H](NC(=O)[C@@H]1CCCC(=O)N1)C(=O)NCCc1ccccc1)NO 0.956

Using Histone deacetylase 2 (Homo sapiens, UniProt Q92769) as the test system, report measured IC50 of O=C(CCCCC[C@H](NC(=O)[C@@H]1CC(=O)N1)C(=O)Nc1ccccc1)NO . 0.089

###

Observed IC50 values for Protein deacetylase HDAC6 (Homo sapiens) are listed in what follows.
Report field: quantity (unit follows the number).

Observe how each entry below is paired with its result.
>  <Query smiles>
O=C(CCCCC[C@H](NC(=O)[C@@H]1CCC(=O)N1)C(=O)Nc1ccccc1)NO

>  <Recorded value>
6 nM

$$$$
>  <Query smiles>
Cc1ccc(NC(=O)CCCCCCC(=O)NO)cc1

>  <Recorded value>
12 nM

$$$$
>  <Query smiles>
O=C(CCCCCCC(=O)Nc1cccc(C(F)(F)F)c1)NO

>  <Recorded value>
6 nM

$$$$

From here, focus on the item given below.
For Protein deacetylase HDAC6 (Homo sapiens), give the measured IC50 of the entry O=C(CCCCC[C@H](NC(=O)[C@@H]1CCCC(=O)N1)C(=O)NCCc1ccccc1)NO 8 nM
